// values below are reported pKd
B1: NELF-E aptamer (parent)
chain: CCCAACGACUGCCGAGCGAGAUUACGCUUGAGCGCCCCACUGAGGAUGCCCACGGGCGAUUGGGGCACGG

Variants of: B1
assay comment: HiTS-RAP
condition notes: with NELF-E (Drosophila)
The quantity pKd is defined as the negative base-10 logarithm of the molar concentration.

G14A G54A ... 7.90
A8G C13A ... 8.18
A24G G55A ... 7.95
A4G U29C ... 8.22
U22G G30U ... 8.18

Challenge: Provide only the value of recorded pKd for U29G G54U
Response given: 8.17

Challenge: Provide only the value of recorded pKd for U29A C37U
Response given: 8.12

Challenge: Provide only the value of recorded pKd for A15U G34A
Response given: 7.93

Challenge: Provide only the value of recorded pKd for C13G G30U
Response given: 8.22

All values here come from the RNAGym collection of RNA variant scans (doi:10.1038/nmeth.2970).
